Biological target: SMARCA2 (Homo sapiens)
Sequence (P51531 whole entry): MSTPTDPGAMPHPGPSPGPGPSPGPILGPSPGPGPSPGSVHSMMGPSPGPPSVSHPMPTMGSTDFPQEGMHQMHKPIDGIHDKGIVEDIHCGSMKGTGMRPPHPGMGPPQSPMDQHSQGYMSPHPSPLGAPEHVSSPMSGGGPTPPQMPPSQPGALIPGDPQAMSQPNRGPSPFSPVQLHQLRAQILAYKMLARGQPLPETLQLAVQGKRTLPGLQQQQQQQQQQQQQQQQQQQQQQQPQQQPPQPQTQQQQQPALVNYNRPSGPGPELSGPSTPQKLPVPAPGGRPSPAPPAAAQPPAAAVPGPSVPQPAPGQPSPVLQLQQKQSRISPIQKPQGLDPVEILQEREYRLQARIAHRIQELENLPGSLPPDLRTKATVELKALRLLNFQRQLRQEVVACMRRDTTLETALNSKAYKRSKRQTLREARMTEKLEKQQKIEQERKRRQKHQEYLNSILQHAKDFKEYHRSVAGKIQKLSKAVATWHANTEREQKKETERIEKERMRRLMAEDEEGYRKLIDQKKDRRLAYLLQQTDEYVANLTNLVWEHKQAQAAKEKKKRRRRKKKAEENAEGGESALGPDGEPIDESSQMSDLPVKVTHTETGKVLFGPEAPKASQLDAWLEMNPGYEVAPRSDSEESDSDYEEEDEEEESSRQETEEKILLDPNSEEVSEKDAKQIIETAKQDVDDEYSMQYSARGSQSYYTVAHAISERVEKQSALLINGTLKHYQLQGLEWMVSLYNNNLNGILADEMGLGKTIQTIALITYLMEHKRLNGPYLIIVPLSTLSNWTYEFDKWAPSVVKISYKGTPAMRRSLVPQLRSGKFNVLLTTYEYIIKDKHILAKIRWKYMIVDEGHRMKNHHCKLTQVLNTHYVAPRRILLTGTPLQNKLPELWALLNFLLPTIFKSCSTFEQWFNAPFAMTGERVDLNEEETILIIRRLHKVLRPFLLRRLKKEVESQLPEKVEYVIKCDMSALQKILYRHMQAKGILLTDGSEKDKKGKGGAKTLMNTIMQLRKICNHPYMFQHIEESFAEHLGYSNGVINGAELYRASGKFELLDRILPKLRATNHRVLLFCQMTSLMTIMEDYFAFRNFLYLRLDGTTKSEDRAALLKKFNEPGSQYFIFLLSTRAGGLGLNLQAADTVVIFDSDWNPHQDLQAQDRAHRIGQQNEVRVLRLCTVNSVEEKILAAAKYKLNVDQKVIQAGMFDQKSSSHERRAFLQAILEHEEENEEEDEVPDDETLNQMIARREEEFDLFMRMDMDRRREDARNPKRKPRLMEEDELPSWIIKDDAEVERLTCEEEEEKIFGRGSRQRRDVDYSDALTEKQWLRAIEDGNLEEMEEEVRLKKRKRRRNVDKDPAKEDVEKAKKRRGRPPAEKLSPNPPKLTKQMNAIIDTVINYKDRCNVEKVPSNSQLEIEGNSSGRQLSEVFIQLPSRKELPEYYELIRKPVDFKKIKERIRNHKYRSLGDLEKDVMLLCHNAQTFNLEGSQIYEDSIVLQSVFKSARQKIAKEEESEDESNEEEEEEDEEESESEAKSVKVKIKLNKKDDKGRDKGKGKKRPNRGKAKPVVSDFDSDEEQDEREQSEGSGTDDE
Assay: SMARCA2 Western blot degradation in MV4-11 cells
Assay type: cell-based
Design: SMARCA2/SMARCA4 protein degradation selectivity in MV4-11 cells; endogenous in cells; host or cells: MV4-11
Details: MV4-11, MV4-11 cells, 24 h; read-out: SMARCA2 MSD MV411 degradation 24 h: average Dmax %
property_name: Dmax

Some solved entries appear below for comparison.
molecule	value_reported
C#Cc1ccc(CNC(=O)[C@@H]2C[C@@H](O)CN2C(=O)[C@@H](NC(=O)N2CCN(CC3CCN(c4cnc(N5CCc6[nH]c7nnc(-c8ccccc8O)cc7c6[C@@H]5C)nc4)CC3)CC2)C(C)(C)C)cc1 [I-160]	70 to 90%
C#Cc1cnc(CNC(=O)[C@@H]2C[C@@H](O)CN2C(=O)[C@@H](NC(=O)[C@H]2CC3(C2)C[C@H](N2CCC(N4CCC(N5CCN6c7cc(-c8ccccc8O)nnc7NC[C@H]6C5)CC4)CC2)C3)C(C)(C)C)c(OC)c1 (single isomer, unassigned) [I-330]	50 to 70%

Lookup: Output reported Dmax of the molecule Cc1ncsc1-c1ccc(CNC(=O)[C@@H]2C[C@@H](O)CN2C(=O)[C@@H](NC(=O)C2(F)CC2)C(C)(C)C)c(O[C@H]2CC[C@H](N3CCC(N4CCC(c5cnc(N6CCc7[nH]c8nnc(-c9ccccc9O)cc8c7[C@@H]6C)nc5)CC4)CC3)CC2)c1 (single isomer, unassigned) [I-47] on SMARCA2 (Homo sapiens).
Found: > 90%

Lookup: Output reported Dmax of the molecule Cc1ncsc1-c1ccc(CNC(=O)[C@@H]2C[C@@H](O)CN2C(=O)[C@@H](NC(=O)[C@H]2CC[C@@H](c3ccc(-c4cnc(N5CCN6c7cc(-c8ccccc8O)nnc7NC[C@H]6C5)nc4)cc3)CC2)C(C)(C)C)cc1 [I-86] on SMARCA2 (Homo sapiens).
Found: > 90%

Lookup: Output reported Dmax of the molecule Cc1ncsc1-c1ccc(CNC(=O)[C@@H]2C[C@@H](O)CN2C(=O)[C@@H](NC(=O)N2CCC3(CCC(N4CCC(c5cnc(N6CCN7c8cc(-c9ccccc9O)nnc8NC[C@H]7C6)nc5)CC4)CC3)CC2)C(C)(C)C)cc1 [I-68] on SMARCA2 (Homo sapiens).
Found: 50 to 70%

Lookup: Output reported Dmax of the molecule C#Cc1ccc([C@H](C)NC(=O)[C@@H]2C[C@@H](O)CN2C(=O)C(c2cc(N3CCC(CN4CCC(N5CCC(N6CCN7c8cc(-c9ccccc9O)nnc8NC[C@H]7C6)CC5)CC4)CC3)no2)C(C)C)c(Cl)c1 (stereo partly drawn) [I-324] on SMARCA2 (Homo sapiens).
Found: < 50%

Lookup: Output reported Dmax of the molecule C#Cc1ccc(CNC(=O)[C@@H]2C[C@@H](O)CN2C(=O)[C@@H](NC(=O)c2ccc(N3CCC(N4CCC(N5CCN6c7cc(-c8ccccc8O)nnc7NC[C@H]6C5)CC4)CC3)cn2)C(C)(C)C)cc1 [I-292] on SMARCA2 (Homo sapiens).
Found: > 90%

Lookup: Output reported Dmax of the molecule C#Cc1ccc(CNC(=O)[C@@H]2C[C@@H](O)CN2C(=O)[C@H](NC(=O)N2CC3(CC(N4CCC(c5cnc(N6CCc7[nH]c8nnc(-c9ccccc9O)cc8c7[C@H]6C)nc5)CC4)C3)C2)C(C)(C)CCN2CCN[C@H](C(=O)O)C2)cc1 [I-343] on SMARCA2 (Homo sapiens).
Found: < 50%

Lookup: Output reported Dmax of the molecule C#Cc1ccc(CNC(=O)[C@@H]2C[C@@H](O)CN2C(=O)[C@@H](NC(=O)N2CC3(CC(N4CCC(N5CCC(N6CCc7[nH]c8nnc(-c9ccccc9O)cc8c7[C@H]6C)CC5)CC4)C3)C2)C(C)(C)C)c(OC)c1 [I-183] on SMARCA2 (Homo sapiens).
Found: 70 to 90%
